# experimental setup: in ethanol, 278.15 K
value kind: solubility (mole fraction)

| chemical smiles | number |
| --- | --- |
| Cc1c(Br)cccc1C(=O)O | 0.0358 |

====

# experimental setup: in ethyl acetate, 313.15 K
value kind: solubility (mole fraction)

| chemical smiles | number |
| --- | --- |
| Cc1c(Br)cccc1C(=O)O | 0.0677 |

====

# experimental setup: in ethyl acetate, 293.15 K

| chemical smiles | solubility (mole fraction) |
| --- | --- |
| Cc1c(Br)cccc1C(=O)O | 0.0413 |

====

# experimental setup: in acetonitrile, 298.15 K

| chemical smiles | solubility (mole fraction) |
| --- | --- |
| Cc1c(Br)cccc1C(=O)O | 0.00665 |
